Target Of Assay: T1, His-tagged soluble recombinant human IGF-IR (srhIGF-1R-his) (human, UniProt P08069 31-935)
T1 construct: extracellular domain; Bought construct; not shown: His tag
Procedure Summary: ALPHAScreen competition against b-hIGF-1 on srhIGF-1R-his
Positions of bridges follow the written chain, without caps; N, C: chain ends. No end group written: not given here.
IC50 reference
Property Measured: IC50 (µM)

1. TFYSCLASLLTGTPQPNRGPWERCRKK (disulfide 5-24 (inferred)) [RP6KK]; 0.18
2. VGRASGFPENFYDWFGRQLSLQSGEQ [H2C-A-H6]; 32

The measured values listed here are drawn from patent US20070004634A1.
